Target: Tyrosine-protein phosphatase non-receptor type 1 (Homo sapiens)
Sequence (P18031 whole entry): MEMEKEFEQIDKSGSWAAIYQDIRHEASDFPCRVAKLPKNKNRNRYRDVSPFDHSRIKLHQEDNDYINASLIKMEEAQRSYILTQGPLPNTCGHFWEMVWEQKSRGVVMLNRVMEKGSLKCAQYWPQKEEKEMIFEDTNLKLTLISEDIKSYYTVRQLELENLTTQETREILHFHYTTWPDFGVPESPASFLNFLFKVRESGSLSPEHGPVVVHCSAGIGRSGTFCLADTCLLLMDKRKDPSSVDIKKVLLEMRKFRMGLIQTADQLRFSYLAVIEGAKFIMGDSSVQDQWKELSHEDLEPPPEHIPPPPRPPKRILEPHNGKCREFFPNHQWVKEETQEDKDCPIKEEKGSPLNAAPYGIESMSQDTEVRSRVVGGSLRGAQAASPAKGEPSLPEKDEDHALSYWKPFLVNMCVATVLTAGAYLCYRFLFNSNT
Assay: Binding affinity towards recombinant human Protein-tyrosine phosphatase 1B was determined
MEASURE: Ki (µM)
Value expressed in µM; do not type the unit.

Problem: May I ask what Ki has been recorded for `CS(=O)(=O)NC(=O)c1ccc2cc(C(F)(F)P(=O)(O)O)ccc2c1` ?
Result: 17
